assay: growth inhibition of DIPG glioma cells, dose response, cell-based, SU-DIPG-IV, MIPE4.0, CellTiter-Glo, qHTS (AID 1347063); settings: SU-DIPG-IV viability, CellTiter-Glo ATP luminescence;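 also: compound exposure lasted 48 hours before the viability readout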
Results filed as inconclusive are left out. Calls of active or inactive are those of the source. The limit is not given here; nearly all actives have AC50 up to about 30 µM. Where a SMILES comes first, the peptide text is derived from it. [ ]: non-standard residue; d: D form. The star is where a group is joined. Sta = CC(C)C[C@H](N)[C@@H](O)CC(=O)O; Isovaleryl = CC(C)CC(=O)*
Classes used: YES for active, NO for inactive

Compound	Assigned Class
Cc1cc(O)c2c(c1)C(=O)c1cccc(O)c1C2=O	NO
COc1c(O)cc2c(c1O)[C@@H]1O[C@H](CO)[C@@H](O)[C@H](O)[C@H]1OC2=O	NO
CN1CCN(c2c(F)cc3c(=O)c(C(=O)O)cn4c3c2OCN4C)CC1	NO
CC(CCc1ccc(O)cc1)NCCc1ccc(O)c(O)c1 (stereo unspecified)	NO
COc1cc2ncnc(Nc3ccc(F)c(Cl)c3)c2cc1OCCCN1CCOCC1	YES
OC(CCN1CCCCC1)(c1ccccc1)C1CC2C=CC1C2 (stereo unspecified)	NO
CNC(=O)c1cc(Oc2ccc(NC(=O)Nc3ccc(Cl)c(C(F)(F)F)c3)cc2)ccn1	YES
CC[C@H]1OC(=O)[C@H](C)[C@@H](O[C@H]2C[C@@](C)(OC)[C@@H](O)[C@H](C)O2)[C@H](C)[C@@H](O[C@@H]2O[C@H](C)C[C@H](N(C)C)[C@H]2O)[C@](C)(OC)C[C@@H](C)C(=O)[C@H](C)[C@@H](O)[C@]1(C)O	NO
OC(CN1CCC(Cc2ccc(F)cc2)CC1)c1ccc(Cl)cc1 (stereo unspecified)	NO
O=C(O)c1cccc(-c2noc(-c3ccccc3F)n2)c1	NO
Cc1nnc(C(=O)NC(C)(C)c2nc(C(=O)NCc3ccc(F)cc3)c(O)c(=O)n2C)o1	NO
CC1(CN2CCC(n3c(=O)[nH]c4ccccc43)CC2)OCc2ccccc2-n2cccc21 (stereo unspecified)	NO
CC(C)CC(=O)N[C@H](C(=O)N[C@H](C(=O)N[C@@H](CC(C)C)[C@@H](O)CC(=O)N[C@@H](C)C(=O)N[C@@H](CC(C)C)[C@@H](O)CC(=O)O)C(C)C)C(C)C (Isovaleryl-VV[Sta]A[Sta]-OH)	NO
CN[C@H](CC(C)C)C(=O)N[C@H]1C(=O)N[C@@H](CC(N)=O)C(=O)N[C@H]2C(=O)N[C@H]3C(=O)N[C@H](C(=O)N[C@H](C(=O)O)c4cc(O)cc(O)c4-c4cc3ccc4O)[C@H](O)c3ccc(c(Cl)c3)Oc3cc2cc(c3O[C@@H]2O[C@H](CO)[C@@H](O)[C@H](O)[C@H]2O[C@H]2C[C@](C)(N)[C@H](O)[C@H](C)O2)Oc2ccc(cc2Cl)[C@H]1O	NO
O=C(O)C(=O)Nc1cccc(-c2nn[nH]n2)c1	NO
CCC(=O)NCC[C@@H]1CCc2ccc3c(c21)CCO3	NO

----------
assay: growth inhibition of DIPG glioma cells, dose response, cell-based, SU-DIPG-XVII, MIPE5.0, CellTiter-Glo, qHTS (AID 1347060); conditions: SU-DIPG-XVII viability, CellTiter-Glo ATP luminescence;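 as to AC50: cells exposed to compound for 48 hours before viability readout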
Inconclusive results are not listed. Calls of active or inactive are those of the source. No cut-off is given here; in the data, nearly all actives have AC50 up to about 26 µM.
Classes used: active, inactive

Molecule	Assigned Class
COCCCN1CCC(NC(=O)c2cc(Cl)c(N)c3c2OCC3)CC1	inactive
CC[C@H](C)C(=O)O[C@H]1CCC=C2C=C[C@H](C)[C@H](CC[C@@H]3C[C@@H](O)CC(=O)O3)[C@H]21	active
FC(F)c1nc2ccccc2n1-c1nc(N2CCOCC2)nc(N2CCOCC2)n1	active
O=C(O)C(=O)Nc1cccc(-c2nn[nH]n2)c1	inactive
N[C@@H](Cc1c[nH]c2ccc(O)cc12)C(=O)O	inactive
C=CC(=O)Nc1cc2c(Nc3ccc(F)c(Cl)c3)ncnc2cc1OCCCN1CCOCC1	active
O=C(O)[C@H](O)[C@@H](O)[C@H](O[C@@H]1O[C@H](CO)[C@H](O)[C@H](O)[C@H]1O)[C@H](O)CO	inactive
COc1ccc(-c2nc3ccc(C4=NNC(=O)CC4C)cc3[nH]2)cc1 (configuration not stated)	active
Cc1ccc(C(=O)c2cc(O)c(O)c([N+](=O)[O-])c2)cc1	inactive
O=[N+]([O-])c1ccc(O)c2ncccc12	active
N=c1ccn2c(n1)O[C@H]1[C@H](O)[C@@H](CO)O[C@H]12	active
O=C(O)c1ccc(-n2nc(-c3ccccc3O)nc2-c2ccccc2O)cc1	active
C=C(C)[C@@H]1CC[C@]2(C(=O)O)CC[C@]3(C)[C@H](CC[C@@H]4[C@@]5(C)CC[C@H](O)C(C)(C)[C@@H]5CC[C@]43C)[C@@H]12	active
CN[C@H](CC(C)C)C(=O)N[C@H]1C(=O)N[C@@H](CC(N)=O)C(=O)N[C@H]2C(=O)N[C@H]3C(=O)N[C@H](C(=O)N[C@H](C(=O)O)c4cc(O)cc(O)c4-c4cc3ccc4O)[C@H](O)c3ccc(c(Cl)c3)Oc3cc2cc(c3O[C@@H]2O[C@H](CO)[C@@H](O)[C@H](O)[C@H]2O[C@H]2C[C@](C)(N)[C@H](O)[C@H](C)O2)Oc2ccc(cc2Cl)[C@H]1O	inactive
O=c1[nH]c(=O)n([C@H]2C[C@H](O)[C@@H](CO)O2)cc1I	inactive
COc1cc(CNC(=O)CCCC/C=C/C(C)C)ccc1O	inactive
COc1cc([C@@H]2c3cc4c(cc3[C@H](O)[C@H]3COC(=O)[C@@H]23)OCO4)cc(OC)c1OC	active
CNC(=O)c1cc(Oc2ccc(NC(=O)Nc3ccc(Cl)c(C(F)(F)F)c3)cc2)ccn1	active
O=C(Nc1cc(C(F)(F)F)cc(C(F)(F)F)c1)c1cc(Cl)ccc1O	active
NC(N)=NC(N)=NCCc1ccccc1	inactive
C=C1CC[C@@H]2[C@](C)(CO)[C@H](O)CC[C@@]2(C)[C@@H]1C/C=C1/C(=O)OC[C@H]1O	active
CC(C)OC(=O)C(C(=O)OC(C)C)=C1SC=CS1	inactive
Cc1ccc(-n2nc(C(C)(C)C)cc2NC(=O)Nc2ccc(OCCN3CCOCC3)c3ccccc23)cc1	inactive
COc1ccc([C@@H]2CC(=O)c3c(O)cc(O[C@@H]4O[C@H](CO[C@@H]5O[C@@H](C)[C@H](O)[C@@H](O)[C@H]5O)[C@@H](O)[C@H](O)[C@H]4O)cc3O2)cc1O	inactive
Cc1ccccc1C(=O)Nc1ccc(C(=O)N2CCCC(O)c3cc(Cl)ccc32)c(C)c1 (configuration not stated)	inactive
Nc1ncnc2c1ncn2[C@@H]1O[C@H](CO)[C@@H](O)[C@@H]1O	inactive
NCCCC(N)(C(=O)O)C(F)F (configuration not stated)	inactive
CS(=O)(=O)CCNCc1ccc(-c2ccc3ncnc(Nc4ccc(OCc5cccc(F)c5)c(Cl)c4)c3c2)o1	active
COC(=O)[C@H](c1ccccc1Cl)N1CCc2sccc2C1	inactive
COc1ccc2[nH]c(S(=O)Cc3ncc(C)c(OC)c3C)nc2n1 (configuration not stated)	inactive
CCOC(=O)c1c(C)n(C)c2ccc(O)cc12	inactive
COC(=O)C1=C(C)NC(C)=C(C(=O)OCCCN2CCC(c3ccccc3)(c3ccccc3)CC2)C1c1cccc([N+](=O)[O-])c1 (configuration not stated)	active
CNC(=O)c1ccccc1Sc1ccc2c(/C=C/c3ccccn3)n[nH]c2c1	active
CCC(C)(Oc1ccc(C2(c3ccc(OC(C)(CC)C(=O)O)cc3)CCCCC2)cc1)C(=O)O (configuration not stated)	inactive
NCCc1cnc[nH]1	inactive
COc1c(C)c2c(c(O)c1C/C=C(\C)CCC(=O)OCCN1CCOCC1)C(=O)OC2	active
C[C@H]1COc2c(N3CCN(C)CC3)c(F)cc3c(=O)c(C(=O)O)cn1c23	inactive

Values compiled from PubChem BioAssay.
